Data credit: patent US20220010021A1

tested.target: human FGFR1c + KLB receptor complex on HEK293 iLite FGF21 reporter cells (human, UniProt P11362 22-822; Q86Z14 1-1044)
Sequence (P11362 22-822, chain 1 of 2): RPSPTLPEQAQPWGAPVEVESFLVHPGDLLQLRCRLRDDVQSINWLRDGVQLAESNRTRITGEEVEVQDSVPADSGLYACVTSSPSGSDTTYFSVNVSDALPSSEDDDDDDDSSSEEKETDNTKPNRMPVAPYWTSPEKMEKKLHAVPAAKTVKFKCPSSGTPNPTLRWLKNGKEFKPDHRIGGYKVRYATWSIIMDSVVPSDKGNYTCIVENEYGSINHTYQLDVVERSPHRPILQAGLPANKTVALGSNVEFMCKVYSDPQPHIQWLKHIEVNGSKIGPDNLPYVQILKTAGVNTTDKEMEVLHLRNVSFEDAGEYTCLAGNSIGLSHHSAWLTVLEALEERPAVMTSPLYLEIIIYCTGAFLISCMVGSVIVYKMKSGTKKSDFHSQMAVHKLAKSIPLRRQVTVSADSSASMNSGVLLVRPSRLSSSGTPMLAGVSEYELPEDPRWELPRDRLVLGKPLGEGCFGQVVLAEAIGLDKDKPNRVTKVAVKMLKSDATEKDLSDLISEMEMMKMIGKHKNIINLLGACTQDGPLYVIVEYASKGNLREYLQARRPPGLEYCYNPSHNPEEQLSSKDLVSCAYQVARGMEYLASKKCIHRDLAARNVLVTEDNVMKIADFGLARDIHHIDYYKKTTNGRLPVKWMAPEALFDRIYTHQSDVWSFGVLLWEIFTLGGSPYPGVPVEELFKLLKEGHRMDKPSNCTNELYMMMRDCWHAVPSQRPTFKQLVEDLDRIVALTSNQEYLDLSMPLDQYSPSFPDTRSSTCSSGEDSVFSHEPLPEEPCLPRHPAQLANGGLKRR
Sequence (Q86Z14 whole entry, chain 2 of 2): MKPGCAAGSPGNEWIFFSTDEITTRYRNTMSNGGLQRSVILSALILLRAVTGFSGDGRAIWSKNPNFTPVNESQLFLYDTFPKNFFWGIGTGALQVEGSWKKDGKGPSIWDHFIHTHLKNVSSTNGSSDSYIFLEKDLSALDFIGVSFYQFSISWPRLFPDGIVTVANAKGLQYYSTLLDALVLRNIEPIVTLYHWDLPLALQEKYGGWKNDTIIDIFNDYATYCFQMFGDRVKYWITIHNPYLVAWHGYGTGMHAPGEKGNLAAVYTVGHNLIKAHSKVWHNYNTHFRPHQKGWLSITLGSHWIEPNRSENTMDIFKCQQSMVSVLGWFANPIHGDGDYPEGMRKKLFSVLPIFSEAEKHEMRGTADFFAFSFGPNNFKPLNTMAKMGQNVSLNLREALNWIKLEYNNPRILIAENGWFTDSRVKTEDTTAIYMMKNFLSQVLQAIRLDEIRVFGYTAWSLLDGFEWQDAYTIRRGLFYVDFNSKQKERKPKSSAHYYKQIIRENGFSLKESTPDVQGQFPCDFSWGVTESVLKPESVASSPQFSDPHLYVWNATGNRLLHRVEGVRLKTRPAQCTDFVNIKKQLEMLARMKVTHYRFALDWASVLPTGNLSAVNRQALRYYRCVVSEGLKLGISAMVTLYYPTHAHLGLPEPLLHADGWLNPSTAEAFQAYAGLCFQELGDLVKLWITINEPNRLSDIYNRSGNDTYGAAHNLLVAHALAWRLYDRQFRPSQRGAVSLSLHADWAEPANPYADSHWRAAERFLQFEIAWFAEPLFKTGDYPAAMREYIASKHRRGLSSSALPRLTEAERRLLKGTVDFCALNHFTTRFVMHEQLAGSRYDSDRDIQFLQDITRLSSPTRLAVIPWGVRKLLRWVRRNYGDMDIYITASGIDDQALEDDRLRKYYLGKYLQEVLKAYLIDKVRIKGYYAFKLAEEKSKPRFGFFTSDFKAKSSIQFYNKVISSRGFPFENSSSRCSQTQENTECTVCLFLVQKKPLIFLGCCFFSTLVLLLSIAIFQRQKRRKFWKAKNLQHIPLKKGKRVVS
measurement.description: cell-based or functional assay
value.type: Emax (%)
Write the answer as a number in %, unit excluded.

// solved cases for Emax follow
Ab0327 (antibody, IgG4, V domains shown, IgG4 PE) VH: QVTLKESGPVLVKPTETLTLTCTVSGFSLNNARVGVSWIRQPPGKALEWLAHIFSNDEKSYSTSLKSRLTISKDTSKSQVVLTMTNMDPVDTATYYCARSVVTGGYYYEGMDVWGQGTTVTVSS VL: SYVLTQPPSVSVAPGQTARITCGGSNIGSESVHWYQQKPGQAPVLVVYYYSDRPSGIPERFSGSNSGNTATLTISRVEAGDEADYYCQVWEGESDHVVFGGGTKLTVLG :: 995
Ab0312 (antibody, IgG4, V domains shown, IgG4 PE) VH: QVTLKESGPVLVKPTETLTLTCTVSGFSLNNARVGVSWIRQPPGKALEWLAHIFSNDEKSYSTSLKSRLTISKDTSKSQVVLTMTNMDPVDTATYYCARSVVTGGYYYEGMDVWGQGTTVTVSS VL: SYVLTQPPSVSVAPGQTARITCGGSNIGSESVHWYQQKPGQAPVLVVYYESDRPSGIPERFSGSNSGNTATLTISRVEAGDEADYYCQVWDGESDHVVFGGGTKLTVLG :: 1010

Ask: Form field: reported Emax of Ab0328 (antibody, IgG4, V domains shown) VH: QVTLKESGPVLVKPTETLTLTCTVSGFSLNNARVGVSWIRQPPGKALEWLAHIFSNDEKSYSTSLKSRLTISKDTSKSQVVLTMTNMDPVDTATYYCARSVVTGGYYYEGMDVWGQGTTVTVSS VL: SYVLTQPPSVSVAPGQTARITCGGSNIGSESVHWYQQKPGQAPVLVVYYASDRPSGIPERFSGSNSGNTATLTISRVEAGDEADYYCQVWAGSSDHVVFGGGTKLTVLG
Result: 421
